- Protocol summary: in vitro
- Conditions used: monkey, Vero cells
- Description: Selectivity index, ratio of IC50 for cytotoxicity against african green monkey Vero cells assessed as inhibition of cell growth to IC50 for antileishmanial activity against Leishmania donovani MHOM/IN/95/9515 promastigotes assessed as inhibition of parasite growth
With a cut-off of 20, any selectivity ratio strictly below it is called t; any selectivity ratio meeting it or above is called f.

> print(dat)
                         chemical.structure  cat
1                  O=Cc1ccc([N+](=O)[O-])s1    t
2  O=[N+]([O-])c1ccc(/C=N/N=C/c2ccc(F)cc2)o1    f
3    O=[N+]([O-])c1ccc(/C=N/N=C/c2ccccc2)o1    t
4  O=[N+]([O-])c1ccc(/C=N/N=C/c2ccc(O)cc2)o1    t
5         NC(=O)N/N=C/c1ccc([N+](=O)[O-])o1    f
6  O=[N+]([O-])c1ccc(/C=N/N=C/c2ccc([N+](=O)[O-])o2)cc1    t
7  COc1ccc(/C=N/N=C/c2ccc([N+](=O)[O-])o2)cc1    f

----------
- Protocol summary: Selectivity index, ratio of IC50 for cytotoxicity against human THP-1 cells assessed as inhibition of cell growth to IC50 for antileishmanial activity against Leishmania donovani MHOM/IN/95/9515 amastigote assessed as inhibition of parasite growth
- Type: functional
Property label: Ratio IC50

> print(dat)
                         chemical.structure  property.label  measured.result
1  O=[N+]([O-])c1ccc(/C=N/N=C/c2ccc(Br)cc2)o1      Ratio IC50               16
2  COc1ccc(/C=N/N=C/c2ccc([N+](=O)[O-])o2)cc1      Ratio IC50               44
3  O=[N+]([O-])c1ccc(/C=N/N=C/c2ccc(OCc3ccccc3)cc2)o1      Ratio IC50              400
4                  O=Cc1ccc([N+](=O)[O-])o1      Ratio IC50               30
5  O=[N+]([O-])c1ccc(/C=N/N=C/c2ccc(O)cc2)o1      Ratio IC50               17
6  O=[N+]([O-])c1ccc(/C=N/N=C/c2ccc([N+](=O)[O-])o2)cc1      Ratio IC50               32
7  O=[N+]([O-])c1ccc(/C=N/N=C/c2ccc(O)cc2)s1      Ratio IC50               67
8    O=[N+]([O-])c1ccc(/C=N/N=C/c2ccccc2)s1      Ratio IC50               14

----------
- Test system: Leishmania donovani
- Protocol summary: Antileishmanial activity against Leishmania donovani MHOM/IN/95/9515 promastigotes assessed as inhibition of parasite growth incubated for 48 hrs by resazurin staining based analysis
- Assay type: functional, organism-based
- Conditions used: MHOM/IN/95/9515, 48 h
Field 'label' (enum: met / not met). Set to met when IC50 is strictly under 2000 nM; else not met.

> print(dat)
                          chemical.structure      cat
 1  O=[N+]([O-])c1ccc(/C=N/N=C/c2ccc(Br)cc2)o1  not met
 2         NC(=O)N/N=C/c1ccc([N+](=O)[O-])o1      met
 3  COc1ccc(/C=N/N=C/c2ccc([N+](=O)[O-])o2)cc1      met
 4       O=C1OCCN1/N=C/c1ccc([N+](=O)[O-])o1      met
 5    C(=N\N=C\c1ccco1)/c1ccc(OCc2ccccc2)cc1  not met
 6                  O=Cc1ccc([N+](=O)[O-])s1  not met
 7  O=[N+]([O-])c1ccc(/C=N/N=C/c2ccc(O)cc2)s1      met
 8  Cc1ccc(/C=N/N=C/c2ccc([N+](=O)[O-])o2)cc1      met
 9    O=[N+]([O-])c1ccc(/C=N/N=C/c2ccco2)cc1  not met
10  O=[N+]([O-])c1ccc(/C=N/N=C/c2ccc(O)cc2)o1      met
11  O=[N+]([O-])c1ccc(/C=N/N=C/c2ccc(OCc3ccccc3)cc2)o1      met
